This section presents compounds with their documented selectivity ratio values.
# Procedure details: Selectivity index, ratio of HC50 for hemolytic activity against Mianyang red blood cells (unknown origin) to MIC for antimicrobial activity against methicillin resistant Staphylococcus aureus 003
# Format: toxicity, cell-based, RBC
# Experimental context: read-out: Selectivity Index

Consider the reported selectivity ratio for these compounds:
CC1(C)CC[C@]2(C(=O)O)CC[C@]3(C)C(=CC[C@@H]4[C@@]5(C)CC[C@H](O)C(C)(C)[C@@H]5CC[C@]43C)[C@@H]2C1 : > 16
CC1(C)CC[C@]2(C(=O)O)CC[C@]3(C)C(=CC[C@@H]4[C@@]5(C)CC[C@H](OC(=O)CCC(=O)O)C(C)(C)[C@@H]5CC[C@]43C)[C@@H]2C1 [OLEANOLIC ACID 3-O-SUCCINATE] : > 64

Please examine the following record next.
Query: Report selectivity ratio for CC1(C)CC[C@]2(C(=O)O)CC[C@]3(C)C(=CC[C@@H]4[C@@]5(C)CC[C@H](OC(=O)c6ccccc6C(=O)O)C(C)(C)[C@@H]5CC[C@]43C)[C@@H]2C1 please.
Response: > 32
